assay: in vivo; conditions: ICR, mouse, plasma, po, 5 mg/kg
measurement kind: AUC(0-inf) at 24 h

Identify measured AUC(0-inf) at 24 h associated with Cc1c(F)cncc1-c1ccc2nc(NC(=O)[C@@H]3C[C@@H]3F)sc2c1
25000 ng·h/mL

* * *

experiment: in vivo; details: ICR, mouse, plasma, po, 5 mg/kg
measurement kind: Cmax at 24 h

Look up Cmax at 24 h of Cc1c(F)cncc1-c1ccc2nc(NC(=O)[C@@H]3C[C@@H]3F)sc2c1 and report it.
4260 ng/mL
